Tested on: Fibroblast
Experiment: Multiplex assay against human fibroblast
Assay type: toxicity, cell-based
Details: 12 h, 10 µM, compound concentration 10 uM, replicate 2
I'd appreciate it if you could supply Population Tubulin-Different-Phenotype (%) values for the items below.
Give just the number in %; leave the unit off.

# returns recorded Population Tubulin-Different-Phenotype (%) (system: Fibroblast) for CSc1nc(NC2CCCC2)c([N+](=O)[O-])c(NC2CCCC2)n1 [GS-39783] 70

// lookup Population Tubulin-Different-Phenotype (%) | system=Fibroblast | key= CCc1nn2c(C)cc(C)nc2c1Cc1ccc(-c2nnc(C3CCNCC3)o2)cc1 79

Requested read-out Population Tubulin-Different-Phenotype (%), target or system Fibroblast, entry Nc1nc(CC(=O)Nc2ccc(CCNC[C@H](O)c3ccccc3)cc2)cs1 [MIRABEGRON] 45

Write down the reported Population Tubulin-Different-Phenotype (%) of COc1ccc2c(c1OCc1ccccc1)C[C@@H](C(=O)O)N(C(=O)C(c1ccccc1)c1ccccc1)C2 [OLODANRIGAN] , test system: Fibroblast. 46

Item: Cc1ccc(OCC(O)C(C)NC(C)C)c2c1CCC2.Cl (stereo unspecified) Test system: Fibroblast Read-out: Population Tubulin-Different-Phenotype (%) Value: ? 54

What Population Tubulin-Different-Phenotype (%) appears in the records for this molecule with Fibroblast? Cc1cc(O)c(-c2ccc([C@@H](C)CN(C)C)cc2)c2c1[nH]c(=O)c1sccc12 80

Identify the measured Population Tubulin-Different-Phenotype (%) of Cc1sc2c(c1C)C(c1ccc(Cl)cc1)=N[C@H](CC(=O)OC(C)(C)C)c1nnc(C)n1-2 for Fibroblast. 95

Lookup: Population Tubulin-Different-Phenotype (%) / Fibroblast / CN1C[C@H](C(=O)N[C@]2(C)O[C@@]3(O)[C@@H]4CCCN4C(=O)[C@H](Cc4ccccc4)N3C2=O)C[C@@H]2c3cccc4[nH]cc(c34)C[C@H]21.CS(=O)(=O)O [DIHYDROERGOTAMINE MESYLATE] 42

Form field: Population Tubulin-Different-Phenotype (%) recorded for CC(C)(C)c1ccc(CSc2cnn(C(C)(C)C)c(=O)c2Cl)cc1 [PYRIDABEN] with Fibroblast (enter value) 54

Reported Population Tubulin-Different-Phenotype (%) for Fibroblast, given CCCCC[C@H](O)/C=C/[C@H]1[C@H](O)CC(=O)[C@@H]1CCCCCCC(=O)O [ALPROSTADIL] ? 45

Form field - read-out: Population Tubulin-Different-Phenotype (%); system: Fibroblast; submitted item: OCCCNc1cc(-c2ccnc(Nc3cccc(Cl)c3)n2)ccn1 84

---

Test system: Fibroblast
Experiment: Multiplex assay against human fibroblast
Format: toxicity, cell-based
Conditions: 24 h, 10 µM, compound concentration 10 uM, replicate 2
Non-standard residues stand in square brackets, D forms with d. Residues, ends and D or L forms follow the SMILES beside them.
Answer each item with its documented Population Tubulin-Different-Phenotype (%).
Lab book: enter the figure in %, no units written.

Which measured Population Tubulin-Different-Phenotype (%) value corresponds to CC(F)(F)CN1CCOc2c(nn(-c3ccccc3Cl)c2-c2ccc(Cl)cc2)C1=O ? 60

Which Population Tubulin-Different-Phenotype (%) is listed for Cn1cc(C(=O)OCC2CCN(CCNS(C)(=O)=O)CC2)c2ccccc21 ? 52

I would be grateful if you could share the reported Population Tubulin-Different-Phenotype (%) for Nc1nc(-c2ccco2)c2cnn(Cc3ccccc3F)c2n1 . 46

Could you tell me which Population Tubulin-Different-Phenotype (%) is on file for Cc1ccc(OCC(O)C(C)NC(C)C)c2c1CCC2.Cl (configuration not stated) ? 65

Entry CSc1nc(NC2CCCC2)c([N+](=O)[O-])c(NC2CCCC2)n1 : reported Population Tubulin-Different-Phenotype (%) = ? 57

Entry S=C(NCCCc1c[nH]cn1)NCCCN(Cc1ccc(Cl)c(Cl)c1)c1ccc(Br)cn1 has what Population Tubulin-Different-Phenotype (%)? 95

For the molecule COC(c1ccccc1)(c1ccccc1)[C@H](Oc1nc(C)cc(C)n1)C(=O)O , what Population Tubulin-Different-Phenotype (%) is on record? 36

Suppose we examine the molecule CCCCC[C@H](O)/C=C/[C@H]1[C@H](O)CC(=O)[C@@H]1CCCCCCC(=O)O ; what Population Tubulin-Different-Phenotype (%) value has been reported? 59

What does the record list as Population Tubulin-Different-Phenotype (%) for C=CCN1C[C@H](C(=O)N(CCCN(C)C)C(=O)NCC)C[C@@H]2c3cccc4[nH]cc(c34)C[C@H]21 ? 53

Recorded Population Tubulin-Different-Phenotype (%) of CCCCCCNC(=O)Nc1ccc(S(=O)(=O)Nc2ccc(CCNC[C@H](O)COc3ccc(O)cc3)cc2)cc1 , please. 65

Consider the molecule CC(C)(C)c1ccc(CSc2cnn(C(C)(C)C)c(=O)c2Cl)cc1 and give its measured Population Tubulin-Different-Phenotype (%). 53

Requested field: Population Tubulin-Different-Phenotype (%). Item: COc1ccc2[nH]c(I)c(CCNC(C)=O)c2c1 40

Can you share its Population Tubulin-Different-Phenotype (%)? I mean this molecule: Cc1cc(NC(=O)NCCN2CCC(O)(Cc3ccccc3)CC2)c2ccccc2n1 48

// Population Tubulin-Different-Phenotype (%) lookup, key: COc1ccc2c(c1OCc1ccccc1)C[C@@H](C(=O)O)N(C(=O)C(c1ccccc1)c1ccccc1)C2 50

Any idea what its Population Tubulin-Different-Phenotype (%) is? The molecule is N[C@](CC1c2ccccc2Oc2ccccc21)(C(=O)O)[C@H]1C[C@@H]1C(=O)O 34

Which measured Population Tubulin-Different-Phenotype (%) value corresponds to CC(C)C[C@@H]1NC(=O)[C@@H](C(C)C)NC(=O)[C@@H]2CCCN2C(=O)[C@@H](CC(=O)O)NC(=O)[C@@H](Cc2c[nH]c3ccccc23)NC1=O [BQ-123] (cyclo(L[dW][dD]P[dV])) ? 50

What Population Tubulin-Different-Phenotype (%) value was documented for this molecule, COc1cc(C(=O)N2CC[C@@H](O)[C@@H](N)C2)cc2nc(-c3cc4ccccc4n3CC3CC3)n(C)c12.Cl ? 92
